Data origin, for the record: the supplement of paper PMC10567573

B1: SNAP91 (parent)
chain: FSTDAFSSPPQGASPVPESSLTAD

# Variants of: B1
# testMethodNotes: protein stability index of a GFP-peptide fusion (GPS, HEK-293T) (PSI 1-6); higher = more stable;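 further: lentivirally expressed fusions sorted by FACS into six bins by GFP to DsRed ratio, PSI derived from sequencing read proportions per bin multiplied by bin number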
# conditionContext: c terminus: a fixed tail appended
Please mark 1 if the recorded protein stability index is equal to or greater than 3, and 0 if it falls below.

| variantLabel | answerLabel |
| --- | --- |
| D24V | 0 |
| A13L | 0 |
| S8V | 1 |
| T3M | 1 |
| F6L | 1 |
| T22Y | 1 |
| P17E | 1 |
| S7Q | 1 |
| S7R | 0 |
| F1P | 1 |
| P10C | 0 |
| A13T | 1 |
| L21G | 1 |
| P10D | 1 |
| P17N | 1 |
| E18I | 0 |
| E18T | 0 |
